assay: recombinant barcode read abundance after kanamycin selection (control-corrected) (log10(CPM+1)); higher = more efficient recombination; sequences stand for … in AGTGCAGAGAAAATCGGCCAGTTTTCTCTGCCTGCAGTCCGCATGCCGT…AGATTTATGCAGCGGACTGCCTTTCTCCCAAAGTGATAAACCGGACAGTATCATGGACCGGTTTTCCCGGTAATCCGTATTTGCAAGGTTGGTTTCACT; site = the 11-nt target
Value kind: recombinant barcode read abundance (log10)

// worked examples, recombinant barcode read abundance (log10) included
> print(dat)
                           sequence.content  observed.measurement
1  GGAGCACCTTGGGTTCTAACCTGTTGCCT (site GGAGCACCTAG)                  2.38
2  CTAATAGCTTGGGTTCTAACCTGTTGCCT (site CTAATAGCTAG)                 0.901
3  TACAGTACTTGGGTTCTAACCTGTTGCCT (site GACAGTACTAG)                 0.325
4  ACCTCTTCTTGGGTTCTAACCTGTTGCTA (site CGTCGACCTAT)                 0.204
5  GACTTCCCTTGGGTTCTAACCTGTTGCAT (site GACTTACCTAT)                 0.352
6  TCTTAGACTTGGGTTCTAACCTGTTGCTT (site TCTTAGACTAA)                  0.17
7  ATAAAACCTTGGGTTCTAACCTGTTGCCT (site ATAAAACCTAG)                  1.23
8  GGCAAGGCTTGGGTTCTAACCTGTTGCCT (site GGCAAGGCTAG)                0.0617

Returns the measured recombinant barcode read abundance (log10) for the input sequence. Input: GACACTGCTTGGGTTCTAACCTGTTGCCT (site GAGACTGCTAG)
0.044

Returns the measured recombinant barcode read abundance (log10) for the input sequence. Input: TAGAAGCCTTGGGTTCTAACCTGTTGCCG (site TACAAGCCTAG)
0.0659

====

assay: recombinant barcode read abundance after kanamycin selection (control-corrected) (log10(CPM+1)); higher = more efficient recombination; sequences stand for … in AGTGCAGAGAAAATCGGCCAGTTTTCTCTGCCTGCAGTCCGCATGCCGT…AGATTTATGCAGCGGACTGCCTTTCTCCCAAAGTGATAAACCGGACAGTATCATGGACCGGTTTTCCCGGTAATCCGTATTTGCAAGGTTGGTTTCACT; site = the 11-nt target
Value kind: recombinant barcode read abundance (log10)

// worked examples, recombinant barcode read abundance (log10) included
> print(dat)
                           sequence.content  observed.measurement
1  GCTAACCCTTGGGTTCTAACCTGTTGCGT (site GCTAACCCTAC)                  3.05
2  TAGTACCCTTGGGTTCTAACCTGTTGCAT (site TAGTACCCTAT)                  0.43
3  GCCTCTTCTTGGGTTCTAACCTGTTGCCT (site GTCTCTACTAG)                0.0556
4  ACCCAGCCTTGGGTTCTAACCTGTTGCGT (site ACCCAGCCTAA)                 0.534
5  CTAGACACTTGGGTTCTAACCTGTTGCCT (site CTGGACACTAG)                0.0451

Returns the measured recombinant barcode read abundance (log10) for the input sequence. Input: CCGGTGCCTTGGGTTCTAACCTGTTGCCT (site CTGGTGCCTAG)
0.21

Returns the measured recombinant barcode read abundance (log10) for the input sequence. Input: TCCGATTCTTGGGTTCTAACCTGTTGCGT (site TCCGATTCTAC)
1.7

Returns the measured recombinant barcode read abundance (log10) for the input sequence. Input: CCACGGTCTTGGGTTCTAACCTGTTGCCT (site CCACGGTCTAG)
1.1

Returns the measured recombinant barcode read abundance (log10) for the input sequence. Input: GCCGCGCCTTGGGTTCTAACCTGTTGCAG (site GCCACGCCTCT)
0.0533

Returns the measured recombinant barcode read abundance (log10) for the input sequence. Input: AGGGCTTCTTGGGTTCTAACCTGTTGCTA (site ACGGCTTCTTA)
0

Returns the measured recombinant barcode read abundance (log10) for the input sequence. Input: GCTTCGTCTTGGGTTCTAACCTGTTGCCT (site GCGTCGTCTAG)
0.0292

Returns the measured recombinant barcode read abundance (log10) for the input sequence. Input: ACTGTGACTTGGGTTCTAACCTGTTGCCT (site ACTGTGACTAG)
2.71

Returns the measured recombinant barcode read abundance (log10) for the input sequence. Input: TGCCATCCTTGGGTTCTAACCTGTTGCAT (site TGCCATCCTAT)
0.544

====

assay: recombinant barcode read abundance after kanamycin selection (control-corrected) (log10(CPM+1)); higher = more efficient recombination; sequences stand for … in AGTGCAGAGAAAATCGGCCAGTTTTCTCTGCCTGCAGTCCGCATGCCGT…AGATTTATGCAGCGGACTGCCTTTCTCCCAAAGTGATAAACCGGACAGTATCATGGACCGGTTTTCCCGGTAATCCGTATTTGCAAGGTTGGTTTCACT; site = the 11-nt target
List of recombinant barcode read abundance (log10) values.
API doc: respond with a numeric literal and nothing else, no unit.

// worked examples, recombinant barcode read abundance (log10) included
> print(dat)
                           sequence.content  observed.measurement
1  AACACGACTTGGGTTCTAACCTGTTGCTC (site AACACGACTGA)                 0.171
2  ATGGTGTCTTGGGTTCTAACCTGTTGCCT (site ATGGTGCCTAG)                 0.768
3  GCTCAACCTTGGGTTCTAACCTGTTGCCT (site GATCAACCTAG)                 0.796
4  GAGTCGGCTTGGGTTCTAACCTGTTGCTT (site GAGGCGGCTAA)                0.0495
5  AATAGGCCTTGGGTTCTAACCTGTTGCGT (site AATGGGCCTAC)                  0.23
6  AACTAGTCTTGGGTTCTAACCTGTTGCTA (site AACTAGTCTTA)                  1.27
7  GAGTCTACTTGGGTTCTAACCTGTTGCTT (site GAATCTACTAA)                0.0356
8  TTGGGTGCTTGGGTTCTAACCTGTTGCCG (site TTGGGTTCTAG)                0.0649

Returns the measured recombinant barcode read abundance (log10) for the input sequence. Input: AGATTCACTTGGGTTCTAACCTGTTGCCT (site AGATTCACTAG)
0.994

Returns the measured recombinant barcode read abundance (log10) for the input sequence. Input: CTGTGTCCTTGGGTTCTAACCTGTTGCGG (site TCAGCCTCTAG)
0.214

====

assay: recombinant UMI read abundance after kanamycin selection (control-corrected) (log10(CPM+1)); higher = more efficient recombination; extreme values may be limits of the assay; sequences stand for … in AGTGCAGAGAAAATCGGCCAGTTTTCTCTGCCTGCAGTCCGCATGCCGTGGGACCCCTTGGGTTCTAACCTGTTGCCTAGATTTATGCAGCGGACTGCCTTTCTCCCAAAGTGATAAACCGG…AGGTTGGTTTCACT; site = the 11-nt donor
Value kind: recombinant UMI read abundance (log10)
API doc: respond with a numeric literal and nothing else, no unit.

> print(dat)
                           sequence.content                              value.kind  observed.measurement
1  CAAGTGCCATGGACCGGTTTTCCCGGTAATCCGTATTTGTA (site CAAGTGCCTTA)  recombinant UMI read abundance (log10)                  1.56

Returns the measured recombinant UMI read abundance (log10) for the input sequence. Input: TCCGATTCATGGACCGGTTTTCCCGGTAATCCGTATTTGCC (site TCCGATTCTGG)
0

Returns the measured recombinant UMI read abundance (log10) for the input sequence. Input: GTCCCCGCATGGACCGGTTTTCCCGGTAATCCGTATTTGTA (site GTCCCCGCTTA)
1.13

Returns the measured recombinant UMI read abundance (log10) for the input sequence. Input: CGATCAACATGGACCGGTTTTCCCGGTAATCCGTATTTGCT (site CGATCATCTAG)
0

Returns the measured recombinant UMI read abundance (log10) for the input sequence. Input: CCCGGTGCATGGACCGGTTTTCCCGGTAATCCGTATTTGCA (site CCCGGTACTTG)
0

Returns the measured recombinant UMI read abundance (log10) for the input sequence. Input: GCCAACTCATGGACCGGTTTTCCCGGTAATCCGTATTTGTT (site GCCAACTCTAA)
1.65

Returns the measured recombinant UMI read abundance (log10) for the input sequence. Input: TAGTTAGCATGGACCGGTTTTCCCGGTAATCCGTATTTGAA (site TAGGTAGCTTT)
0.00722

Returns the measured recombinant UMI read abundance (log10) for the input sequence. Input: ATCTAGGCATGGACCGGTTTTCCCGGTAATCCGTATTTGGC (site ATATAGGCTGC)
0

Returns the measured recombinant UMI read abundance (log10) for the input sequence. Input: CGAGTATCATGGACCGGTTTTCCCGGTAATCCGTATTTGAC (site CCAGTATCTGT)
1.99
